# literature pull: Apoptosis regulator Bcl-2 (Homo sapiens) pIC50
pIC50: −log10 of the molar value.
recorded-endpoint: pIC50

1) Cc1c(C(=O)O)c(-c2cccc(N3CCN(c4ccc(NS(=O)(=O)c5ccc(N[C@H](CCN6CCC6)CSc6ccccc6)c(S(=O)(=O)C(F)(F)F)c5)cc4)CC3)c2)c(-c2ccc(Cl)cc2)n1C :: 8.12

[A] CN(C)CC[C@H](CSc1ccccc1)Nc1ccc(S(=O)(=O)Nc2ncnc3cc(N4CCN(CC5=C(c6ccc(Cl)cc6)CCC(C)(C)C5)CC4)ccc23)cc1[N+](=O)[O-]
[B] N#CC1=C(C#N)c2ccc(N3CCSCC3)c3cccc(c23)C1=O
[C] CCCCCCNC1=C2C(=NC1=O)c1cccc3c(Sc4ccc(OC)cc4)ccc2c13
Sort by pIC50, descending. Order the labels as requested and list them. A, C, B

====

Literature pIC50 values, system: Apoptosis regulator Bcl-2 (Homo sapiens).
pIC50: −log10 of the molar value.
recorded-endpoint: pIC50

Recorded results for 3 compounds are shown here.
1) CCCCn1c(C)c(C(=O)O)c(-c2cccc(N3CCN(c4ccc(NS(=O)(=O)c5ccc(N[C@H](CCN(C)C)CSc6ccccc6)c([N+](=O)[O-])c5)cc4)CC3)c2)c1-c1ccc(Cl)cc1 :: 7.64
2) CN(C)CC[C@H](CSc1ccccc1)Nc1ccc(S(=O)(=O)NC(=O)c2ccc(C#Cc3cccc(-c4c(-c5ccc(Cl)cc5)cn(CC[C@H](O)CO)c4C(=O)NCCCN4CCN(C)CC4)c3)cc2)cc1[N+](=O)[O-] :: 8.72
3) CCCN(CCC)c1ncc(Cl)c(-c2ccc(C(=O)NS(=O)(=O)c3ccc4cccc(Cl)c4c3)cc2C(=O)N2Cc3ccccc3C[C@H]2CN)n1 :: 7.82

[A] Cc1c(C(=O)N[C@H]2C[C@@](C)(O)C2)c(-c2cccc(N3CCN(c4ccc(NS(=O)(=O)c5ccc(N[C@H](CCN(C)C)CSc6ccccc6)c([N+](=O)[O-])c5)cc4)CC3)c2)c(-c2ccc(Cl)cc2)n1C
[B] N#CC1=C(C#N)c2ccc(SC3CCCCC3)c3cccc(c23)C1=O
Compare A and B by numeric pIC50 and name the larger one. Your answer should be the label of the entry you select. A

====

pIC50: −log10 of the molar value.
Here is a set of molecules with reported pIC50 for Apoptosis regulator Bcl-2 (Homo sapiens), compiled from the literature.
recorded-endpoint: pIC50

These recorded examples may help you get a feel for the data.
1) O=[N+]([O-])c1ccc(Nc2nnc(-c3c[nH]c4ccccc34)o2)cc1 :: 5.42
2) CCCCN(CCCC)C(=O)c1nn(-c2ccc(NS(=O)(=O)c3cc(Cl)cc(Cl)c3O)cc2C(=O)N2CCc3ccccc3C2)c(C)c1Cl :: 6.04
3) CC1(C)CCC(c2ccc(Cl)cc2)=C(CN2CCc3nc(C(=O)NS(=O)(=O)c4ccc(N[C@H](CCN5CCOCC5)CSc5ccccc5)c(S(=O)(=O)C(F)(F)F)c4)sc3C2)C1 :: 7.42

[1] Cc1c(C(=O)NS(C)(=O)=O)c(-c2cccc(N3CCN(c4ccc(NS(=O)(=O)c5ccc(N[C@H](CCN(C)C)CSc6ccccc6)c([N+](=O)[O-])c5)cc4)CC3)c2)c(-c2ccc(Cl)cc2)n1C
[2] CC1(C)CCC(c2ccc(Cl)cc2)=C(CN2CCN(c3ccc(C(=O)NS(=O)(=O)c4ccc(NC5(CN6CC(F)(F)C6)CC5)c(S(=O)(=O)C(F)(F)F)c4)cc3)CC2)C1
Just tell me: smaller pIC50 value, 1 or 2 ? Output the label that corresponds to your choice. 2
(2: 7.46, 1: 9.05)

====

UniProtKB P10415 IC50, compiled from various sources.
recorded-endpoint: IC50 (nM)

Record excerpt, results attached:
1) O=C(c1ccc(Oc2ccccc2)cc1)c1cc(C(=O)c2cccc3ccccc23)c(O)c(O)c1O :: 290
2) CN(C)CC[C@H](CSc1ccccc1)Nc1ccc(S(=O)(=O)Nc2ccc(N3CCN(c4cccc(-c5c(C(=O)O)c(Cl)n(C)c5-c5ccc(Cl)cc5)c4)CC3)cc2)cc1[N+](=O)[O-] :: 1.5

[I] N#CC1=C(C#N)c2ccc(Sc3ccc(Br)cc3)c3cccc(c23)C1=O
[II] CN(C)CC[C@H](CSc1ccccc1)Nc1ccc(S(=O)(=O)Nc2ccc(N3CCN(c4cccc(-c5c(C(=O)NS(C)(=O)=O)ncn5-c5ccc(Cl)cc5)c4)CC3)cc2)cc1[N+](=O)[O-]
[III] CC(C)(C)c1ccc(C(=O)NCCN2C(=O)c3cccc4c(Sc5ccc(Br)cc5)ccc(c34)C2=O)cc1
[IV] CC1(C)CCC(c2ccc(Cl)cc2)=C(CN2CCN(c3ccc(C(=O)NS(=O)(=O)c4ccc(OCC5(CN6CC(F)(F)C6)COC5)c(S(=O)(=O)C(F)(F)F)c4)cc3)CC2)C1
[V] Cn1ccc(S(=O)(=O)NC(=O)c2ccc(N3CCN(CC4=C(c5ccc(Cl)cc5)CCC(C)(C)C4)CC3)cc2)n1
Rank the items in ascending order with respect to IC50. When ranking, write the labels in the order the request describes. II, IV, V, I, III

====

Listing of IC50 toward Apoptosis regulator Bcl-2 (Homo sapiens), each taken from a published source.
recorded-endpoint: IC50 (nM)

Guide cases for IC50, answers given:
1. CN(C)CC[C@H](CSc1ccccc1)Nc1ccc(S(=O)(=O)Nc2ccc(NCCNc3cccc(-c4c(-c5ccc(Cl)cc5)cn(CC[C@H](O)CO)c4C(=O)NCCCN4CCN(C)CC4)c3)cc2)cc1[N+](=O)[O-] :: 60.6
2. CCCCN(CCCC)C(=O)c1nn(-c2ccc(C(=O)NS(=O)(=O)c3ccc4ccccc4c3)cc2C(=O)N2CNc3ccccc3C2)c(C)c1Cl :: 26

[I] N#CC1=C(NCCC(=O)NCCCCCC(=O)NCCCCCCNc2cccc3c2C(=O)N(C2CCC(=O)NC2=O)C3=O)c2ccc(Sc3ccc(Br)cc3)c3cccc(c23)C1=O (stereo unspecified)
[II] CN(C)CC[C@H](CSc1ccccc1)Nc1ccc(S(=O)(=O)Nc2ccc(C#Cc3cccc(-c4c(-c5ccc(Cl)cc5)cn(CC[C@H](O)CO)c4C(=O)NCCCN4CCN(C)CC4)c3)cc2)cc1[N+](=O)[O-]
Would you mind telling me which has the lower recorded IC50 between I and II ? Mark your answer with the label of the selected entry. II
(II: 6.6 nM, I: 11600 nM)

====

Below are IC50 measurements against Apoptosis regulator Bcl-2 (Homo sapiens, UniProt P10415) drawn from the literature.
Sequence (P10415 whole entry): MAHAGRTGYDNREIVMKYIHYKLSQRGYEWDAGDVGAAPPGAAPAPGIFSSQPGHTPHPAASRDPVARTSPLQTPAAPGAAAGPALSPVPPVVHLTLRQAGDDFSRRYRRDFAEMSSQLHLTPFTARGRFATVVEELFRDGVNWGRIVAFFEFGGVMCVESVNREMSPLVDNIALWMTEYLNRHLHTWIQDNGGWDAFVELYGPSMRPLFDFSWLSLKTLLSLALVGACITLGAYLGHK
recorded-endpoint: IC50 (nM)

Before answering, review these 3 worked examples.
1. CCCCNC1=C2C(=NC1=O)c1cccc3c(Oc4ccc(C(C)C)cc4)ccc2c13 :: 322
2. O=C(O)c1cccc(-c2ccc(/C=c3\sc4n(c3=O)C(c3cccc(F)c3)C3=C(N=4)c4ccccc4CC3)o2)c1 (configuration not stated) :: 3200
3. CCCCCCNC1=C2C(=NC1=O)c1cccc3c(Oc4ccc(C(C)C)cc4)ccc2c13 :: 184

[P] CCOC(=O)c1c(-c2cccc(N3CCN(c4ccc(NS(=O)(=O)c5ccc(N[C@H](CCN(C)C)CSc6ccccc6)c([N+](=O)[O-])c5)cc4)CC3)c2)c(-c2ccc(Cl)cc2)cn1C
[Q] CCCCN(CCCC)C(=O)c1nn(-c2ccc(C(=O)NS(=O)(=O)c3ccc4cccc(OCc5ccc(C(=O)O)cc5)c4c3)cc2C(=O)N2CCc3ccccc3C2)c(C)c1Cl
[R] COc1ccc(Sc2ccc3c4c(cccc24)C2=NC(=O)C(C#N)=C23)cc1
[S] CC1(C)CCC(CN2CCN(c3ccc(C(=O)NS(=O)(=O)c4ccc(NCC5CCOC5)c([N+](=O)[O-])c4)c(Oc4cnc5[nH]ccc5c4)c3)CC2)=C(c2ccc(C(F)(F)F)cc2)C1 (configuration not stated)
Order the entries by their reported IC50, beginning at the minimum. Kindly provide the labels arranged according to the requested ordering. S, Q, P, R
(S: 4.7 nM, Q: 15 nM, P: 45.8 nM, R: 945 nM)

====

// read-out IC50, gathered for UniProt:P10415 from published studies
recorded-endpoint: IC50 (nM)

1. N#CC1=C(C#N)c2ccc(SC3CCCC3)c3cccc(c23)C1=O :: 8400

[a] CCOC(=O)C1=C2C(=NC1=O)c1cccc3c(N4CCSCC4)ccc2c13
[b] O=C(c1ccc(CN(Cc2ccc(F)cc2)S(=O)(=O)c2cc(Cl)cc(Cl)c2O)cc1)N(Cc1ccc(F)cc1)Cc1cc(Cl)cc(Cl)c1
Determine, for a and b , which has the greater value of IC50. Please identify the chosen entry by its label. a

====

Before we begin, note that these IC50 values for Apoptosis regulator Bcl-2 (Homo sapiens, UniProt P10415) originate from several publications.
recorded-endpoint: IC50 (nM)

[a] CN(C)CCCNc1ccc(S(=O)(=O)NC(=O)c2ccc(N3CCN(CC4=C(c5ccc(C(F)(F)F)cc5)CC(C)(C)CC4)CC3)cc2Oc2cnc3[nH]ccc3c2)cc1[N+](=O)[O-]
[b] COc1ccc(C2=C(CN3CCN(c4ccc(C(=O)NS(=O)(=O)c5ccc(NCC6CCOCC6)c([N+](=O)[O-])c5)c(Oc5cnc6[nH]ccc6c5)c4)CC3)CCC(C)(C)C2)cc1
[c] CCCCN(CCCC)c1ncc(Cl)c(-c2ccc(C(=O)NS(=O)(=O)c3ccc4ccccc4c3)cc2C(=O)N2CCc3ccccc3C2)n1
[d] O=C(NS(=O)(=O)c1ccc(N[C@H](CCN2CCOCC2)CSc2ccccc2)c(S(=O)(=O)C(F)(F)F)c1)c1ccc(N2CCC(S(=O)(=O)c3ccccc3-c3ccc(Cl)cc3)CC2)cc1
[e] CC1(C)CCC(c2ccc(Cl)cc2)=C(CN2CCN(c3ccc(C(=O)NS(C)(=O)=O)cc3)CC2)C1
Going from lowest to highest recorded IC50, rank the entries listed above. To answer, write out the labels according to the requested order. a, b, d, c, e
